System: Staphylococcus sp.
Experiment: In vitro antibacterial evaluation: minimum inhibitory concentration (MIC), broth dilution method
Assay type: cell-based
Conditions: strain GC 4543
READOUT_KIND: MIC Staphylococcus aureus-SMITH (GC 4543)
Include the unit after the number when you answer.

{"MOLECULE": "N=C1NCC(C(O)C2NC(=O)C(Cc3ccc(OC4OC(CO)C(OC5OC6COC7(OC6C(O)C5O)C5CC6CC(C5)CC7C6)C(O)C4O)cc3)NC(=O)C(Cc3ccccc3)NC(=O)CNC(=O)C(CO)NC(=O)C(C(O)C3CNC(=N)N3C3OC(CO)C(O)C(O)C3O)NC2=O)N1 (centres unmarked) [Example 220]", "RESULT": "1 mg/L"}

Attention now turns to another entry.
The value of MIC Staphylococcus aureus-SMITH (GC 4543) measured for the molecule N=C1NCC(C(O)C2NC(=O)C(Cc3ccc(OC4OC(CO)C(OC5OC6COC(c7ccccc7)OC6C(O)C5O)C(O)C4O)cc3)NC(=O)C(CC3CCCCC3)NC(=O)CNC(=O)C(CO)NC(=O)C(C(O)C3CNC(=N)N3C3OC(CO)C(O)C(O)C3O)NC2=O)N1 (centres unmarked) [Example 199] turned out to be 1 mg/L
